Values compiled from PubChem BioAssay (NCI).

Here, each record is paired with measured TGI data.
- Tested on: SNB-75 CNS
- assay name: NCI tumour cell line growth inhibition, 48 h

Any idea what its TGI is? The compound is CC(C)(C)C1=C(Br)C(Br)(C(C)(C)C)OP1(=O)c1ccccc1 (centres undefined)
> 100 µM

Any idea what its TGI is? The compound is CC1=C(C(=O)Nc2ccc3[nH]ncc3c2)C(c2ccc3ccccc3c2)CC(=O)N1 (centres undefined)
> 20.1 µM

Any idea what its TGI is? The compound is COc1ccc(C2Oc3c(cc(O)c(OC)c3C)[C@@H]2C)cc1OC (some centres undefined)
> 100 µM

Any idea what its TGI is? The compound is CCCCCCCCCCCCCCCCCCNc1ccn(C2OC(COP(=O)(O)OCC3OC(n4ccc(NC(=O)CCCCCCCCCCCCCCCCC)nc4=O)C(OC(C)=O)C3OC(C)=O)C(OC(C)=O)C2OC(C)=O)c(=O)n1 (centres undefined)
> 100 µM
